# System: PC-3 prostate
# Assay Explanation: NCI-60 one-dose screen, 48 h (100 = growth as untreated, 0 = no growth, -100 = all killed)
# Condition Info: 10 µM unless noted
Compounds without any hit were thinned out: in the full panel of roughly 83,000, 20% have a hit.
Quantity Kind: growth (%)
Kindly answer with a numeric value in %, unit omitted.

Compound Structure: Cn1cc(C2=C(c3coc4cc(Br)ccc34)C(=O)NC2=O)c2ccccc21
Experimental Value: 69.3
//
Compound Structure: O=C(CSc1nc2ccccc2c(=O)n1-c1ccccc1)N/N=C/c1ccc(Oc2ccc(Br)cc2)cc1
Experimental Value: 71.8
//
Compound Structure: CN1CCN(c2ccc(Nc3nc(NCCCNS(=O)(=O)c4ccccc4)c4sccc4n3)cc2)CC1
Experimental Value: 68.9

// field: growth; key: Cc1ccc2c(n1)C(=O)C(Cl)=C(Nc1cccc(C(=O)OC(C)(C)C)c1)C2=O ; value = 72
